Provenance of the data: patent US20100125103A1

- test_details: Solubility (Table 1)
- Type: physicochemical
- condition_notes: solvents in which the compound is insoluble
endpoint: Solubility Insoluble

C/C=C/c1ccc(Oc2cc(/C=C/C)cc(OC(C)=O)c2OC(C)=O)cc1	Water
CCCc1ccc(Oc2cc(CCC)cc(OC(C)=O)c2OC(C)=O)cc1	Water
C/C=C/c1ccc(Oc2cc(/C=C/C)cc(O)c2O)cc1	Water
CCCc1ccc(Oc2cc(CCC)cc(O)c2O)cc1	Water
